Origin of the recorded values: patent US20210275692A1

- PROCEDURE_DETAILS: UVvis maximum absorption wavelength of selected dyes (Table 1)
- Type: physicochemical
- MEASUREMENT_CONDITIONS: source not stated
The following compounds are listed with their measured UVvis maximum values.
OUTCOME_MEASURE: UVvis maximum (nm)

INSERT INTO measurements (smiles_structure, outcome_measure, value_unit, experimental_value) VALUES
  ('CCCCOc1c2c(c(OCCCC)c3ccccc13)-c1nc-2nc2[nH]c(nc3nc(nc4[nH]c(n1)c1c(OCCCC)c5ccccc5c(OCCCC)c41)-c1c-3c(OCCCC)c3ccccc3c1OCCCC)c1c(OCCCC)c3ccccc3c(OCCCC)c21', 'UVvis maximum', 'nm', 784),
  ('C#CCNC(=O)CCCCCN1/C(=C/C=C2C=C(/C=C/C3=[N+](C)c4ccc5ccccc5c4C3(C)C)CCC/2)C(C)(C)c2c1ccc1ccccc21.[Cl-]', 'UVvis maximum', 'nm', 788),
  ('CCCCCCCCOc1cc2c(cc1OCCCCCCCC)-c1nc-2nc2[nH]c(nc3nc(nc4[nH]c(n1)c1cc(OCCCCCCCC)c(OCCCCCCCC)cc41)-c1cc(OCCCCCCCC)c(OCCCCCCCC)cc1-3)c1cc(OCCCCCCCC)c(OCCCCCCCC)cc21', 'UVvis maximum', 'nm', 701),
  ('C#CCNC(=O)CCCCCN1C(=CC=CC=CC2=[N+](C)c3ccccc3C2(C)C)C(C)(C)c2ccccc21.[Cl-]', 'UVvis maximum', 'nm', 646);
